- Target: Serine/threonine-protein phosphatase 5 (Homo sapiens) (UniProt P53041)
- Sequence (P53041 whole entry, looked up): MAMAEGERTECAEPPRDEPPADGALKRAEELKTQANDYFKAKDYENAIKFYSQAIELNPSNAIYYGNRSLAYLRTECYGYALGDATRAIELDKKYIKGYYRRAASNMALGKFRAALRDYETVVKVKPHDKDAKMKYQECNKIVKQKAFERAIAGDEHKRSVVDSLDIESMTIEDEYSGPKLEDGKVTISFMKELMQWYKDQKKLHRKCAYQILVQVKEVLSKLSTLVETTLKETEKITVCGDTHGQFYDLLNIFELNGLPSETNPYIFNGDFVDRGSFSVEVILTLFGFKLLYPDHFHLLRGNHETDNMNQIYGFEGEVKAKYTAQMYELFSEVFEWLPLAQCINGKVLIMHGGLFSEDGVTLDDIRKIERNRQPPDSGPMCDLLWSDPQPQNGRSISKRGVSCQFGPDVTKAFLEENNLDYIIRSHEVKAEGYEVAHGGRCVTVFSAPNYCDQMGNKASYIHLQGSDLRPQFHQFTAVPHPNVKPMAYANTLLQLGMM
- Test Description: PP5 phosphatase inhibition selectivity check, late-stage follow-up, selectivity assay for PP1 inhibitor project, biochemical, radiolabel, 33P-phosphohistone substrate, powder samples (AID 652229)
- Measurement Conditions: purified PP5c, 33P-phosphohistone dephosphorylation, scintillation; at 50 µM; hits give high values
// reported inhibition per item
// note: answer is a bare numeric in %

Worked examples, 6 compounds total:
Oc1c(C(c2ccccn2)N2CCC(Cc3ccccc3)CC2)cc(Cl)c2cccnc12 (configuration not stated) ... 4.23
CC1CCN(C(c2ccccn2)c2cc(Cl)c3cccnc3c2O)CC1 (configuration not stated) ... 6.08
Oc1c(C(c2ccccn2)N2CCNCC2)cc(Cl)c2cccnc12 (configuration not stated) ... 6.84
Oc1c(C(c2ccccn2)N2CCN(c3ccccc3F)CC2)cc(Cl)c2cccnc12 (configuration not stated) ... -0.6
CC(C)(C)OC(=O)N1CCN(C(c2ccccn2)c2cc(Cl)c3cccnc3c2O)CC1 (configuration not stated) ... 0.25
CCN1CCN(C(c2ccccn2)c2cc(Cl)c3cccnc3c2O)CC1 (configuration not stated) ... 3.21

// next entry
Observed inhibition on Serine/threonine-protein phosphatase 5 (Homo sapiens) (UniProt P53041), entry CN1CCN(C(c2ccccn2)c2cc(Cl)c3cccnc3c2O)CC1 (configuration not stated) , equals 3.05

Data origin: PubChem BioAssay AID652229
